growth listing for selected compounds.
Test system: NCI-H23 lung
EXPERIMENTAL PROTOCOL: NCI-60 one-dose screen, 48 h (100 = growth as untreated, 0 = no growth, -100 = all killed)
CONDITION DETAILS: 10 µM
Protocol: Growth inhibition of the NCI-H23 human Non-Small Cell Lung tumor cell line is measured as a screen for anti-cancer activity. Cells are grown in 96 well plates and exposed to the test compound for 48 hours. Compounds are tested at a single concentration, which is 10^-5 M for most compounds. The reported endpoint is percent growth (GI% or GIPRCNT), where numbers from 0 - 100% represent growth inhibition, and numbers from -100% - 0 represent cell death. […]
This is part of a sample that, as a whole, favours compounds with a hit. Of some 83,000 tested, about 20% had one in any assay.
ENDPOINT NAME: growth (%)

1. CCC(=O)N1C/C(=C/c2ccc(OC)cc2)C(=O)/C(=C/c2ccc(OC)cc2)C1	63.9
2. CCCCN(CCCC)CCCCCCCCC(O)c1cc2ccccc2c2ccccc12 (stereo not given)	40.8
3. COc1ccc(-c2nc3ncccn3c2-c2nnc(-c3ccc(F)cc3)o2)cc1	98.2
4. O=C1/C(=C\c2ccc(Cl)cc2)CN(C(=S)Nc2ccccc2)C/C1=C\c1ccc(Cl)cc1	-52.8
5. Nc1ncnc2[nH]c(=O)[nH]c12	103
6. O=C(Nc1ccncc1)C(=O)c1cn(S(=O)(=O)c2ccc(F)cc2)c2ccccc12	36.8
7. C[C@]12CC[C@@H]3c4ccc(O)cc4C[C@@H](O)[C@H]3[C@@H]1CC[C@@H]2O	110
8. CN(C)c1ccc(Cc2ccc(N(C)C)cc2Cl)c(Cl)c1	97
9. COc1ccc(-c2csc(NC(=O)CSc3nc(C)c(-c4ccccc4)n3Nc3ccccc3)n2)cc1	21.8
10. CCN(CCCCCCCCCCN1CC(=O)N(CCCCCCCCCCN(CC)Cc2ccccc2OC)CC1=O)Cc1ccccc1OC	-26.1
11. COc1ccc(C(=O)/C=C/c2cc(-c3cc(OC)c(OC)c(OC)c3)n[nH]2)cc1	87.3
12. Cc1cc(C)c(CCc2cc(C)c(C)cc2C)cc1C	98
13. O=c1[nH]c2ccc(Cl)cc2c2ccccc12	86.6
14. COc1ccc(OC)c(/C=C/c2nnc(Nc3ccc(Cl)cc3)o2)c1	87.8
15. Nc1nc(N=Nc2ccc(O)cc2)cc(=O)[nH]1	101
16. C=C(Cl)[C@@](Cl)(CBr)CC[C@@H](Br)C(C)(C)Cl	83.2
17. NC1(C(=O)O)CSSC1	49.8
18. COc1ccc(-c2ccc(-c3ccc(C(=N)N)cn3)o2)cc1	85.1
19. O=C(C[P+](c1ccccc1)(c1ccccc1)c1ccccc1)C[P+](c1ccccc1)(c1ccccc1)c1ccccc1	-14.5
20. Fc1ccc2nc(-c3nc(-c4ccccc4)n4ccccc34)[nH]c2c1	57
21. N=C(N)c1ccc(-c2ccc(-c3cccs3)o2)cc1	85.1
22. COc1ccc(-c2nsc3c2NC(=O)CC3c2ccc(F)cc2)cc1 (stereo not given)	59.5
23. O=C(CC(NC(=O)OCc1ccccc1)C(=O)OCc1ccccc1)OCc1ccccc1 (stereo not given)	106
24. N#Cc1c(C#N)c(SSc2c(C#N)c(C#N)c(N)n2-c2ccccc2)n(-c2ccccc2)c1N	94.8
25. O=[N+]([O-])c1ccc(Oc2cccnc2)c([N+](=O)[O-])c1	96.5
26. O=C(Nc1cccc(-n2cc(-c3ccncc3)c(-c3cc(O)cc(Cl)c3)n2)c1)c1ccc(N2CCOCC2)c(C(F)(F)F)c1	15.4
27. CC/C(=C(/c1ccc(OCCN(C)C)cc1)c1ccc(OC(=O)CCCCC(=O)c2c(C)[nH]c(/C=C3\N=C(c4ccc[nH]4)C=C3OC)c2C)cc1)c1ccccc1	86.7
28. Cc1cccc(C)c1NC(=O)c1sc2nc3c(cc2c1N)C(=O)CCC3	65.6
29. CCN(CC)CCOc1nc2cc(OC)c(OC)cc2c2c1-c1ccc(OC)cc1C2=O	77.3
30. COc1ccc(-c2nnc(-c3c(-c4ccccc4)nc4ncccn34)o2)cc1OC	97.2
31. O=C(O)C(SC(C(=O)O)c1ccccc1)c1ccccc1 (stereo not given)	99.8
32. COc1cc2cc3c(nc2cc1OC)CCN3Cc1ccc(NC(=O)c2ccc(Cl)c(C(F)(F)F)c2)cc1	99.7
33. Clc1cc2c(c(CSc3nc4ccccc4n4cccc34)c1)OCOC2	77.9
34. CCN(CC)CCC(CNc1c(C)cnc2cc(Cl)ccc12)c1ccc(Cl)c(Cl)c1 (stereo not given)	63.7
35. COc1ccc2c(c1)sc1nc(-c3ccccc3)c(-c3ccc(O)c(OC)c3)n12	88.2
36. CCC(=O)N1C/C(=C/c2ccc(Cl)cc2)C(=O)/C(=C/c2ccc(Cl)cc2)C1	-25.6
37. CCOC(=O)C(CSC(c1ccccc1)(c1ccccc1)c1ccccc1)NC(=O)C(CSC(c1ccccc1)(c1ccccc1)c1ccccc1)NC(c1ccccc1)(c1ccccc1)c1ccccc1 (stereo not given)	116
38. CN(C)CCN=c1nc2c(c(N)n1-c1ccccc1)c(=S)n(-c1ccccc1)c(=S)n2-c1ccccc1	67.6
39. COc1ccc(/C=C2/CN(C(=O)c3ccc(C)cc3)C/C(=C\c3ccc(OC)cc3)C2=O)cc1	87.6
40. Cc1cc(=O)[nH]c(N/N=C/c2ccccc2O)n1	78.6

These measurements were taken from PubChem BioAssay (NCI).
